biological target: human CB1 receptor (Homo sapiens, UniProt P21554); test: cAMP accumulation assay, CHO cells expressing CB1; format: cell-based; conditions: inhibition of forskolin-stimulated cAMP, CHO-hCB1; read-out: EC50 CB1, cAMP accumulation assay
Sequence (P21554 whole entry): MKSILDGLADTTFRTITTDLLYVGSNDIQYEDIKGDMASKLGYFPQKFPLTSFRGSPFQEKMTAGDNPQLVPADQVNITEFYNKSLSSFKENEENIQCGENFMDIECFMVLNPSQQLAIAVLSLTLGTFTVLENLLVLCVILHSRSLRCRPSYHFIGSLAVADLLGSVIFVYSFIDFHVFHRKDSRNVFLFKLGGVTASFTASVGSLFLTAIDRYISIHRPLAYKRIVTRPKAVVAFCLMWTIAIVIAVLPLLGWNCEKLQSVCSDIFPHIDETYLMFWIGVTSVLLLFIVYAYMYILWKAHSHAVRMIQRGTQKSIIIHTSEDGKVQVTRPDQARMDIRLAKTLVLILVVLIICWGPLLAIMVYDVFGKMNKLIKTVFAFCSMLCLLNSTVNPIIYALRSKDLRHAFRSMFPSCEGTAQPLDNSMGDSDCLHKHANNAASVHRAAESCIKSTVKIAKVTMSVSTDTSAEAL
// reported EC50 for each item listed
The answer is to be given in nM; state only the numeric part.

These solved cases illustrate the format of a correct answer.
>>> df
                                   compound  testreadout  unitslabel  observedmeasurement
0  CCCc1ccc(O)c(-c2cc(CCC)ccc2OC)c1 [Compound 12a, methoxytetrahydromagnolol]         EC50          nM                  622
1  CCCCCCc1ccc(O)c(-c2cc(CCC)ccc2OC)c1 [Compound 61a]         EC50          nM                  159

Kindly consider the entry below.
-- ask I am curious: what EC50 value has been reported for CCCCCc1ccc(O)c(-c2cc(CCC)ccc2OC)c1 [Compound 60a] ?
-- reply 37.5
